Measurement target: ADRA2B - AG (Homo sapiens)
Sequence (P18089 1-450): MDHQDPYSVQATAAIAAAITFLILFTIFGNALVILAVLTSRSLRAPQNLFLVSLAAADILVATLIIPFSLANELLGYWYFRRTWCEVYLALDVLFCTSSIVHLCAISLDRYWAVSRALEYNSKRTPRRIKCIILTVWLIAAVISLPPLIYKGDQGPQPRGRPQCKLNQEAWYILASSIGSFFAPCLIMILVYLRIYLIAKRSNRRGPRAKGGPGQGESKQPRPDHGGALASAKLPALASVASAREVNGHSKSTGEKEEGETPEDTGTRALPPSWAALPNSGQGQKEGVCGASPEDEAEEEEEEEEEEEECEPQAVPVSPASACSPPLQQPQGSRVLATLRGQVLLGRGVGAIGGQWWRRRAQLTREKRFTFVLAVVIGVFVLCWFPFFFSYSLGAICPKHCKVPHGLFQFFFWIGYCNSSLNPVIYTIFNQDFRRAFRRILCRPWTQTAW
Protocol summary: GPCR panel, cAMP or calcium FLIPR assays
Assay type: cell-based
Experimental parameters: antagonist
Readout: IC50

Q) Please give the measured IC50 for this compound: CC1CCCN1C(=O)c1nc(C(=O)NCC(C)(C)O)sc1-c1ccc(C(O)(C(F)(F)F)C(F)(F)F)c(Cl)c1Cl (stereo not shown)
A) > 12.5 µM
